Assay: Fluorescence spectroscopy (excitation and emission spectra)
Format: physicochemical
Settings: DMSO

# compound, λex
measured = [
    ("CC1(C)C(/C=C/C2=C(c3ccc(CCC(=O)NCCNC(=O)CC[C@H](NC(=O)c4ccc(NCc5cnc6nc(N)[nH]c(=O)c6n5)cc4)C(=O)O)cc3)C(=C/C=C3/N(CCC[N+](C)(C)C)c4ccc(S(=O)(=O)O)cc4C3(C)C)/CCC2)=[N+](CCC[N+](C)(C)C)c2ccc(S(=O)(=O)O)cc21 [Conjugate 2]", "774 nm"),
    ("C[N+]1=C(/C=C/C2=C(Cl)C(=C/C=C3/N(CCCCCC(=O)NCCNC(=O)CC[C@H](NC(=O)c4ccc(NCc5cnc6nc(N)[nH]c(=O)c6n5)cc4)C(=O)O)c4ccccc4C3(C)C)/CCC2)C(C)(C)c2ccccc21 [Conjugate 5]", "796 nm"),
    ("CC1(C)C(/C=C/C2=C(Oc3ccc(S(=O)(=O)O)cc3)C(=C/C=C3/N(CCCCS(=O)(=O)O)c4ccc(S(=O)(=O)[O-])cc4C3(C)C)/CCC2)=[N+](CCCCCC(=O)NCCNC(=O)CC[C@H](NC(=O)c2ccc(NCc3cnc4nc(N)[nH]c(=O)c4n3)cc2)C(=O)O)c2ccc(S(=O)(=O)O)cc21 [Conjugate 3]", "798 nm"),
    ("CC1(C)C(/C=C/C=C/C=C/C=C2\\N(CCCCCC(=O)NCCNC(=O)CC[C@H](NC(=O)c3ccc(NCc4cnc5nc(N)[nH]c(=O)c5n4)cc3)C(=O)O)c3ccc4ccccc4c3C2(C)C)=[N+](CCCCS(=O)(=O)[O-])c2ccc3ccccc3c21 [Conjugate 4]", "790 nm"),
    ("CC1(C)C(/C=C/C2=C(Oc3ccc(CCC(=O)NCCNC(=O)CC[C@H](NC(=O)c4ccc(NCc5cnc6nc(N)[nH]c(=O)c6n5)cc4)C(=O)O)cc3)C(=C/C=C3/N(CCC[N+](C)(C)C)c4ccc(S(=O)(=O)O)cc4C3(C)C)/CCC2)=[N+](CCC[N+](C)(C)C)c2ccc(S(=O)(=O)O)cc21 [Conjugate 1]", "792 nm"),
]

----------
Experiment: Fluorescence spectroscopy (excitation and emission spectra)
Assay type: physicochemical
Settings: culture medium

# compound, Stokes shift / nm
measured = [
    ("CC1(C)C(/C=C/C2=C(Oc3ccc(S(=O)(=O)O)cc3)C(=C/C=C3/N(CCCCS(=O)(=O)O)c4ccc(S(=O)(=O)[O-])cc4C3(C)C)/CCC2)=[N+](CCCCCC(=O)NCCNC(=O)CC[C@H](NC(=O)c2ccc(NCc3cnc4nc(N)[nH]c(=O)c4n3)cc2)C(=O)O)c2ccc(S(=O)(=O)O)cc21 [Conjugate 3]", 25),
    ("CC1(C)C(/C=C/C2=C(c3ccc(CCC(=O)NCCNC(=O)CC[C@H](NC(=O)c4ccc(NCc5cnc6nc(N)[nH]c(=O)c6n5)cc4)C(=O)O)cc3)C(=C/C=C3/N(CCC[N+](C)(C)C)c4ccc(S(=O)(=O)O)cc4C3(C)C)/CCC2)=[N+](CCC[N+](C)(C)C)c2ccc(S(=O)(=O)O)cc21 [Conjugate 2]", 28),
    ("C[N+]1=C(/C=C/C2=C(Cl)C(=C/C=C3/N(CCCCCC(=O)NCCNC(=O)CC[C@H](NC(=O)c4ccc(NCc5cnc6nc(N)[nH]c(=O)c6n5)cc4)C(=O)O)c4ccccc4C3(C)C)/CCC2)C(C)(C)c2ccccc21 [Conjugate 5]", 15),
]

----------
The molecules listed here are annotated with their λem.
Test: Fluorescence spectroscopy (excitation and emission spectra)
Format: physicochemical
Conditions: culture medium
Method: The spectral characteristics of the conjugates 1–5 were determined using a Spark 20M plate reader (Tecan, Switzerland). The emission and excitation of all conjugates were measured in triplicates with a bandwidth of 5 nm in a 96-well Half-Area Microplate at a concentration of 100 μM dissolved in phosphate buffered saline (PBS). The fluorescence intensity was plotted as normalised relative fluorescence units (RFU). […]

# molecule, λem
rows = [
    ("CC1(C)C(/C=C/C2=C(Oc3ccc(CCC(=O)NCCNC(=O)CC[C@H](NC(=O)c4ccc(NCc5cnc6nc(N)[nH]c(=O)c6n5)cc4)C(=O)O)cc3)C(=C/C=C3/N(CCC[N+](C)(C)C)c4ccc(S(=O)(=O)O)cc4C3(C)C)/CCC2)=[N+](CCC[N+](C)(C)C)c2ccc(S(=O)(=O)O)cc21 [Conjugate 1]", "802 nm"),
    ("C[N+]1=C(/C=C/C2=C(Cl)C(=C/C=C3/N(CCCCCC(=O)NCCNC(=O)CC[C@H](NC(=O)c4ccc(NCc5cnc6nc(N)[nH]c(=O)c6n5)cc4)C(=O)O)c4ccccc4C3(C)C)/CCC2)C(C)(C)c2ccccc21 [Conjugate 5]", "804 nm"),
    ("CC1(C)C(/C=C/C2=C(c3ccc(CCC(=O)NCCNC(=O)CC[C@H](NC(=O)c4ccc(NCc5cnc6nc(N)[nH]c(=O)c6n5)cc4)C(=O)O)cc3)C(=C/C=C3/N(CCC[N+](C)(C)C)c4ccc(S(=O)(=O)O)cc4C3(C)C)/CCC2)=[N+](CCC[N+](C)(C)C)c2ccc(S(=O)(=O)O)cc21 [Conjugate 2]", "788 nm"),
    ("CC1(C)C(/C=C/C2=C(Oc3ccc(S(=O)(=O)O)cc3)C(=C/C=C3/N(CCCCS(=O)(=O)O)c4ccc(S(=O)(=O)[O-])cc4C3(C)C)/CCC2)=[N+](CCCCCC(=O)NCCNC(=O)CC[C@H](NC(=O)c2ccc(NCc3cnc4nc(N)[nH]c(=O)c4n3)cc2)C(=O)O)c2ccc(S(=O)(=O)O)cc21 [Conjugate 3]", "808 nm"),
    ("CC1(C)C(/C=C/C=C/C=C/C=C2\\N(CCCCCC(=O)NCCNC(=O)CC[C@H](NC(=O)c3ccc(NCc4cnc5nc(N)[nH]c(=O)c5n4)cc3)C(=O)O)c3ccc4ccccc4c3C2(C)C)=[N+](CCCCS(=O)(=O)[O-])c2ccc3ccccc3c21 [Conjugate 4]", "820 nm"),
]

----------
Assay: Fluorescence spectroscopy (excitation and emission spectra)
Assay type: physicochemical
Details: culture medium

# molecule, λex, nm
rows = [
    ("CC1(C)C(/C=C/C2=C(Oc3ccc(CCC(=O)NCCNC(=O)CC[C@H](NC(=O)c4ccc(NCc5cnc6nc(N)[nH]c(=O)c6n5)cc4)C(=O)O)cc3)C(=C/C=C3/N(CCC[N+](C)(C)C)c4ccc(S(=O)(=O)O)cc4C3(C)C)/CCC2)=[N+](CCC[N+](C)(C)C)c2ccc(S(=O)(=O)O)cc21 [Conjugate 1]", 777),
    ("CC1(C)C(/C=C/C=C/C=C/C=C2\\N(CCCCCC(=O)NCCNC(=O)CC[C@H](NC(=O)c3ccc(NCc4cnc5nc(N)[nH]c(=O)c5n4)cc3)C(=O)O)c3ccc4ccccc4c3C2(C)C)=[N+](CCCCS(=O)(=O)[O-])c2ccc3ccccc3c21 [Conjugate 4]", 784),
    ("CC1(C)C(/C=C/C2=C(c3ccc(CCC(=O)NCCNC(=O)CC[C@H](NC(=O)c4ccc(NCc5cnc6nc(N)[nH]c(=O)c6n5)cc4)C(=O)O)cc3)C(=C/C=C3/N(CCC[N+](C)(C)C)c4ccc(S(=O)(=O)O)cc4C3(C)C)/CCC2)=[N+](CCC[N+](C)(C)C)c2ccc(S(=O)(=O)O)cc21 [Conjugate 2]", 760),
    ("CC1(C)C(/C=C/C2=C(Oc3ccc(S(=O)(=O)O)cc3)C(=C/C=C3/N(CCCCS(=O)(=O)O)c4ccc(S(=O)(=O)[O-])cc4C3(C)C)/CCC2)=[N+](CCCCCC(=O)NCCNC(=O)CC[C@H](NC(=O)c2ccc(NCc3cnc4nc(N)[nH]c(=O)c4n3)cc2)C(=O)O)c2ccc(S(=O)(=O)O)cc21 [Conjugate 3]", 783),
    ("C[N+]1=C(/C=C/C2=C(Cl)C(=C/C=C3/N(CCCCCC(=O)NCCNC(=O)CC[C@H](NC(=O)c4ccc(NCc5cnc6nc(N)[nH]c(=O)c6n5)cc4)C(=O)O)c4ccccc4C3(C)C)/CCC2)C(C)(C)c2ccccc21 [Conjugate 5]", 789),
]

----------
System: Skov-3 subcutaneous xenografts
Assay: In vivo biodistribution and optimal time point FLI in subcutaneous Skov-3 xenograft model (IVIS Spectrum)
Set-up: species or system NOD-scid IL2Rg^null mice
Details: mice, iv injection
Method: All applicable institutional and/or national guidelines for the care and use of animals were followed. […] Observations for general condition and body weights were recorded twice per week and, when indicated, the animals were euthanised according to institutional guidelines. […] Tumour volumes were measured weekly with a digital calliper and calculated using the ellipsoid volume formula: Volume = π (length × width × height)/6. […]
result_type: excretion route

# compound, val
rows = [
    ("CC1(C)C(/C=C/C2=C(c3ccc(CCC(=O)NCCNC(=O)CC[C@H](NC(=O)c4ccc(NCc5cnc6nc(N)[nH]c(=O)c6n5)cc4)C(=O)O)cc3)C(=C/C=C3/N(CCC[N+](C)(C)C)c4ccc(S(=O)(=O)O)cc4C3(C)C)/CCC2)=[N+](CCC[N+](C)(C)C)c2ccc(S(=O)(=O)O)cc21 [Conjugate 2]", "renally cleared"),
    ("CC1(C)C(/C=C/C=C/C=C/C=C2\\N(CCCCCC(=O)NCCNC(=O)CC[C@H](NC(=O)c3ccc(NCc4cnc5nc(N)[nH]c(=O)c5n4)cc3)C(=O)O)c3ccc4ccccc4c3C2(C)C)=[N+](CCCCS(=O)(=O)[O-])c2ccc3ccccc3c21 [Conjugate 4]", "hepatobiliary excretion"),
    ("CC1(C)C(/C=C/C2=C(Oc3ccc(CCC(=O)NCCNC(=O)CC[C@H](NC(=O)c4ccc(NCc5cnc6nc(N)[nH]c(=O)c6n5)cc4)C(=O)O)cc3)C(=C/C=C3/N(CCC[N+](C)(C)C)c4ccc(S(=O)(=O)O)cc4C3(C)C)/CCC2)=[N+](CCC[N+](C)(C)C)c2ccc(S(=O)(=O)O)cc21 [Conjugate 1]", "renally cleared"),
    ("CC1(C)C(/C=C/C2=C(Oc3ccc(S(=O)(=O)O)cc3)C(=C/C=C3/N(CCCCS(=O)(=O)O)c4ccc(S(=O)(=O)[O-])cc4C3(C)C)/CCC2)=[N+](CCCCCC(=O)NCCNC(=O)CC[C@H](NC(=O)c2ccc(NCc3cnc4nc(N)[nH]c(=O)c4n3)cc2)C(=O)O)c2ccc(S(=O)(=O)O)cc21 [Conjugate 3]", "renally cleared"),
    ("C[N+]1=C(/C=C/C2=C(Cl)C(=C/C=C3/N(CCCCCC(=O)NCCNC(=O)CC[C@H](NC(=O)c4ccc(NCc5cnc6nc(N)[nH]c(=O)c6n5)cc4)C(=O)O)c4ccccc4C3(C)C)/CCC2)C(C)(C)c2ccccc21 [Conjugate 5]", "hepatobiliary excretion"),
]
